Measured pIC50, listed per entry.
ASSAYED_TARGET: BACE1 (Aβ40 in HEK293-APPswe/lon cells) (Homo sapiens (Human))
Sequence (P56817 46-501): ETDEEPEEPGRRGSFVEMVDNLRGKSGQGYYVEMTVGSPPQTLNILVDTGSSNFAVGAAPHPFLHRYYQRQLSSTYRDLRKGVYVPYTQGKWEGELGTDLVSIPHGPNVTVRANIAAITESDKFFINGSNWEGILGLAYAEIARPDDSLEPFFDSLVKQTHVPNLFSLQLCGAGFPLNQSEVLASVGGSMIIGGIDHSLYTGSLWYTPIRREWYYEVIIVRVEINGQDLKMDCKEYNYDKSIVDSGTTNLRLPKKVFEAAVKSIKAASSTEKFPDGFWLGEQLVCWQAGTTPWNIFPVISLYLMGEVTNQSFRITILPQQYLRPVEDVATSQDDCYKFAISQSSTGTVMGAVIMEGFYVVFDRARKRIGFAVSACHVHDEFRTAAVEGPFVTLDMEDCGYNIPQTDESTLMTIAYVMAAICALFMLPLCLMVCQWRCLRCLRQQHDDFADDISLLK
METHOD_DESCRIPTION: BACE Inhibitor Whole Cell IC50 Determination Using HEK293-APPswe/lon Cells (Aβ40)
COND: 4 hours
Formally, pIC50 is defined as -log10 of the concentration c, with c in mol/L.

INSERT INTO measurements (compound, measurement_kind, test_value) VALUES
  ('Cc1nc(N2C[C@H]3C(=O)N(C)C(=N)N[C@@]3(c3cc(F)ccc3F)C2)nc(C2CC2)c1F', 'pIC50', 6.63),
  ('COc1nc(N2C[C@H]3C(=O)N(C)C(=N)N[C@@]3(c3cccc(Cl)c3)C2)nc(C)c1F', 'pIC50', 6.75);

The compound listed as Cc1nc(N2C[C@H]3C(=O)N(C)C(N)=N[C@@]3(c3ccccc3)C2)nc(C)c1F (racemic) [23 racemic] has a reported pIC50 of 6.53

Reported pIC50 of CCc1nc(N2C[C@H]3C(=O)N(C)C(=N)N[C@@]3(c3ccccc3)C2)nc(OC)c1F (racemic) [6 racemic] : 6.84

Field pIC50 (entry CCc1nc(N2C[C@H]3C(=O)N(C)C(N)=N[C@@]3(c3ccccc3)C2)nc(C)c1F (racemic) [5 racemic] ) reads 6.66
